Tested on: 598228-144-R-J1-PDC complex spheroids, viability;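 further: spheroids exposed to compounds for seven days before readout; 100% = DMSO vehicle control wells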
Assay info: Anticancer human tumor 598228-144-R-J1-PDC patient-derived serous endometrial adenocarcinoma cell line growth inhibition [CLK]
Test settings: second compound 3.16 µM; first compound 3.16 µM; stronger effect = lower value
For each of the compounds below, state its viability, T/C.
One number for each entry, in %.

Could I get viability, T/C for every one of these entries?
1. CCCS(=O)(=O)Nc1ccc(F)c(C(=O)c2c[nH]c3ncc(-c4ccc(Cl)cc4)cc23)c1F + CN1CCN(c2cc(C(=O)Nc3cc4cc(-c5cnn(C)c5)ccc4cn3)ccn2)CC1
2. CC1COCCN1c1cc(C2(S(C)(=N)=O)CC2)nc(-c2ccnc3[nH]ccc23)n1 (stereo unspecified) + CNC(=O)c1ccc(Nc2nc(OC3CCCC3)c3c(-c4ccc5nc(C)oc5c4)c[nH]c3n2)c(OC)c1
3. CC1COCCN1c1cc(C2(S(C)(=N)=O)CC2)nc(-c2ccnc3[nH]ccc23)n1 (stereo unspecified) + CN1CCN(c2cc(C(=O)Nc3cc4cc(-c5cnn(C)c5)ccc4cn3)ccn2)CC1
4. O=c1[nH]cc(F)c(=O)[nH]1 + CNC(=O)c1ccc(Nc2nc(OC3CCCC3)c3c(-c4ccc5nc(C)oc5c4)c[nH]c3n2)c(OC)c1
5. COc1cccc2c1C(=O)c1c(O)c3c(c(O)c1C2=O)CC(O)(C(=O)CO)CC3OC1CC(N)C(O)C(C)O1 (stereo unspecified) + CN1CCN(c2cc(C(=O)Nc3cc4cc(-c5cnn(C)c5)ccc4cn3)ccn2)CC1

Ans.
[5.08, 50.6, 3.13, 94.5, 1.31]

Qu. Identify viability, T/C associated with the compound Nc1ccccc1NC(=O)c1ccc(CNC(=O)OCc2cccnc2)cc1 + CNC(=O)c1ccc(Nc2nc(OC3CCCC3)c3c(-c4ccc5nc(C)oc5c4)c[nH]c3n2)c(OC)c1
Ans. 34.4

All values here come from PubChem BioAssay AID2060614.
